Origin of values: paper PMC5540273

Test system: EPHB3
recorded conditions: concentration: 1 μM, replicates: in singlicate; n = 1;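 further: KINOMEscan kinase panel screen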
Measured %Inh, listed per entry.
Report the value in % with no unit label.

O=C(O)C(F)(F)F.O=C(O)C(F)(F)F.O=c1[nH]ccc2nc(N[C@@H]3CCCNC3)nc(Nc3ccc(S(=O)(=O)N4CCOCC4)cc3)c12 | 15

Then there is this compound:
# query: %Inh | item Cc1occc1-c1ncc(OC[C@@H](N)Cc2c[nH]c3ccccc23)cc1-c1ccc2[nH]nc(C)c2c1.O=C(O)C(F)(F)F | system: EPHB3
17

###

Tested on: PLK2
recorded conditions: concentration: 1 μM, replicates: in singlicate; n = 1
Measured %Inh, listed per entry for reference.
Report the figure in % without appending any unit label.

Before answering, review these 5 worked examples.
Cn1cc(-c2[nH]c3cc(NC(=O)[C@H](N)C4CCCCC4)cc4c3c2C=NNC4=O)cn1 | 68
CN(C)Cc1ccc(-c2ccc3c(Nc4ccc(Oc5ccccn5)cc4)ccnc3c2)o1 | 0
Cl.Cl.NCC(C(=O)Nc1cc(Br)c(-c2ccnc3[nH]ccc23)s1)c1ccccc1 (stereo not shown) | 16
CC(C)c1nc(-c2cccc(NS(=O)(=O)c3c(F)cccc3F)c2F)c(-c2ccnc(Nc3ccc(N4CCOCC4)nc3)n2)s1 | 0
CN(C)S(=O)(=O)c1cc(-c2ccc3nccc(-c4cccc(S(N)(=O)=O)c4)c3c2)cnc1N | 2

Param item = COc1cc(Nc2nccc(-c3c(-c4cccc(NC(=O)c5c(F)cccc5F)c4)nn4ccccc34)n2)cc(OC)c1OC ; retrieve measured %Inh.
0

Value lookup for %Inh; key = O=C(O)C(F)(F)F.O=C(O)C(F)(F)F.O=c1[nH]ccc2nc(N[C@@H]3CCCNC3)nc(Nc3ccc(S(=O)(=O)N4CCOCC4)cc3)c12
10

###

Tested on: MAP3K1
recorded conditions: concentration: 1 μM, replicates: in singlicate; n = 1
%Inh: recorded values
Answer format: number, then unit.

Guide cases for %Inh, answers given:
COC(=O)Nc1nc2cc(Oc3ccc(NC(=O)Nc4cc(C(F)(F)F)ccc4F)cn3)ccc2[nH]1.Cl.Cl | 11%
Cn1cc(-c2[nH]c3cc(NC(=O)[C@H](N)C4CCCCC4)cc4c3c2C=NNC4=O)cn1 | 35%
CCn1c(-c2nonc2N)nc2c(C#CC(C)(C)O)nc(OC[C@H](N)c3ccccc3)cc21 | 0%
Nc1ncc(-c2cccnc2)c2scc(-c3ccc4c(c3)CCN4C(=O)Cc3ccccc3)c12 | 41%

Turning to the following molecule.
Given the molecule COc1cc2c(cc1OCCN1CCNCC1)ncc1c3ccc(C#N)cc3[nH]c21 , what is its reported %Inh?
33%

###

Entries and their %Inh values follow.
Tested on: SNRK
recorded conditions: concentration: 1 μM, replicates: in singlicate; n = 1

Here's what some known entries look like.
Cl.Cl.NCC(C(=O)Nc1cc(Br)c(-c2ccnc3[nH]ccc23)s1)c1ccccc1 (centres unmarked) | 0%
COCCOCCOc1cc2ncc3c4ccc(C#N)cc4[nH]c3c2cc1OC | 17%
Cc1ccc(C(=O)Nc2ccc(Nc3ccnc4cc(-c5nccs5)ccc34)cc2O)cc1.Cl | 0%
O=C(Nc1cccc(Oc2ccc3nc(NC(=O)C4CC4)cn3n2)c1)c1ccccc1C(F)(F)F | 0%
Cl.NC(=O)c1cccc(Nc2nccc(Nc3ccc(Oc4c(Cl)cccc4Cl)c(Cl)c3)n2)c1 | 5%

Fill in the blank: the reported %Inh of COC(=O)Nc1nc2cc(Oc3ccc(NC(=O)Nc4cc(C(F)(F)F)ccc4F)cn3)ccc2[nH]1.Cl.Cl is ____.
0%

Need %Inh, item CNC(=O)c1ccccc1Nc1nc(Nc2ccc(N3CCOCC3)cc2)ncc1Cl.Cl
0%

Tell me the measured %Inh of CSc1cccc2c(-c3ccncn3)c(-c3ccc(F)cc3)nn12 , please.
0%

// query %Inh value for entry COc1cc(Nc2nccc(-c3c(-c4cccc(NC(=O)c5c(F)cccc5F)c4)nn4ccccc34)n2)cc(OC)c1OC
0%

So what's the measured %Inh for this one? CN(c1ccc(NC(=O)Nc2cc(C(F)(F)F)ccc2F)cc1)c1ccnc(Nc2ccc(S(N)(=O)=O)cc2)n1
5%

###

System: FER
recorded conditions: concentration: 1 μM, replicates: in singlicate; n = 1
Overview of reported %Inh across a group of molecules:
Provide only the numeric value, understood in %.

FC(F)(F)c1ccc(/C=C/c2cncnc2Nc2ccc3[nH]c(Cc4ccccc4)nc3c2)cc1 [GW709199] | 0
Cl.c1ccc(-c2ccc3c(Nc4ccc5[nH]ccc5c4)ccnc3c2)nc1 [GW440138] | 0
Nc1ncnc2c1nc(-c1ccccc1)n2-c1ccccc1 [SKF-97293] | 8
c1ccc(Oc2ccc(Nc3ccnc4cc(-c5ccc(CNCCN6CCOCC6)o5)ccc34)cc2)nc1 [GW567145] | 0
COc1cc(Nc2nccc(N3CCC(NC(=O)Nc4cccc(C(C)=O)c4)C3)n2)cc(OC)c1OC (centres unmarked) [GSK1379753] | 22

Given the molecule CSc1cccc2c(-c3ccncn3)c(-c3ccc(F)cc3)nn12 [GW514786] , what is its reported %Inh?
17

What measured %Inh goes with CCn1c(-c2nonc2N)nc2c(C#CC(C)(C)O)ncc(OCCCCN)c21.O=C(O)C(F)(F)F.O=C(O)C(F)(F)F [GSK507274] ?
0

Entry O=c1[nH]cc(-c2ccc(N3CCOCC3)cc2)c2sc(-c3cn[nH]c3)cc12 [GSK2276055] has what %Inh?
0

###

Tested on: NLK
recorded conditions: concentration: 1 μM, replicates: in singlicate; n = 1
// reported %Inh for each item listed
Response body: numeric value in %, unit text excluded.

CC(C)c1nc(-c2cccc(NS(=O)(=O)c3c(F)cccc3F)c2F)c(-c2ccnc(Nc3ccc(N4CCOCC4)nc3)n2)s1 [GSK2008607] | 97.5
CC(=O)Nc1nc2cnc(Nc3cc(NC(=O)c4cccc(C5(C#N)CC5)c4Cl)ccc3C)nc2s1 | 33
Cc1cccc(NC(=O)Nc2ccc(Oc3ncnc4ccn(C)c34)cc2)c1 | 0

Switching to the query record.
Record request: %Inh value, item CSc1cccc2c(-c3ccncn3)c(-c3ccc(F)cc3)nn12 [GW514786]
70

###

Below, each entry is listed alongside its reported %Inh.
Tested on: PKN2
recorded conditions: concentration: 1 μM, replicates: in singlicate; n = 1
// return numeric value only (unit: %, not printed)

Which value of %Inh has been reported for COc1cc2c(cc1OCCN1CCNCC1)ncc1c3ccc(C#N)cc3[nH]c21 in the records?
41

###

Tested on: CSF1R
recorded conditions: concentration: 1 μM, replicates: in singlicate; n = 1
readout kind: %Inh
Please append the unit to your numeric answer.

Requested read-out: %Inh. Entry: COc1cc2c(cc1OCCN1CCNCC1)ncc1c3ccc(C#N)cc3[nH]c21
51%

Consider the compound Nc1ncc(-c2cccnc2)c2scc(-c3ccc4c(c3)CCN4C(=O)Cc3ccccc3)c12 and give its measured %Inh.
99.2%

###

Test system: SNARK
Construct: gene NUAK2
recorded conditions: concentration: 1 μM, replicates: in singlicate; n = 1
This section presents compounds with their documented %Inh values.
State just the number; it will be interpreted in %.

COC(=O)Nc1nc2ccc(Oc3ccc(NC(=O)Nc4cc(C(F)(F)F)ccc4F)cc3)cc2n1C.Cl | 17
O=C(NC1CCN(c2ccnc(Nc3ccc(F)cc3)n2)C1)c1cc2ccccc2s1 (centres unmarked) | 0
COc1ccc(Nc2nccc(NCCNC(=O)c3cc4ccccc4s3)n2)cc1 | 0

Recorded %Inh for Cc1occc1-c1ncc(OC[C@@H](N)Cc2c[nH]c3ccccc23)cc1-c1ccc2[nH]nc(C)c2c1.O=C(O)C(F)(F)F , please?
60

Dear colleague, I am looking for the recorded %Inh of the following compound: COc1cccc(C(=O)Nc2cccc(Oc3ccc4nc(NC(=O)C5CC5)cn4n3)c2)c1
5

What does the data say about its %Inh? Entry: Nc1ncc(-c2ccc3nccc(-c4ccncc4)c3c2)cc1S(=O)(=O)N1CCOCC1
8

Could you share which %Inh value was measured for FC(F)(F)c1ccc(/C=C/c2cncnc2Nc2ccc3[nH]c(Cc4ccccc4)nc3c2)cc1 ?
45

Data request, read-out %Inh, for C[C@@H](Oc1cc(-n2cnc3cc(-c4ccnc(NCCS(C)(=O)=O)c4)ccc32)sc1C(N)=O)c1ccccc1Cl
95.4

###

Tested on: TAK1
Construct: gene MAP3K7
recorded conditions: concentration: 1 μM, replicates: in singlicate; n = 1
# %Inh per entry
Numeric answer only, unit % assumed.

Completed entries (count: 5):
O=C(Nc1n[nH]c2cc(-c3ccoc3)ccc12)C1CC1 | 2
c1ccc(-c2n[nH]cc2Nc2ccnc3ccccc23)nc1 | 91.6
C[C@@H]1CC[C@@H](C(=O)Nc2ccccc2)CN1c1cc(-c2ccc3c(N)n[nH]c3c2)nc(N)n1 | 0
COc1cc2c(cc1OCCN1CCNCC1)ncc1c3ccc(C#N)cc3[nH]c21 | 95.1
COc1cccc(NC(=O)NC2CCN(c3ccnc(Nc4cc(OC)c(OC)c(OC)c4)n3)C2)c1 (centres unmarked) | 0

Recorded %Inh of CN(C)Cc1ccc(-c2ccc3c(Nc4ccc(Oc5ccccn5)cc4)ccnc3c2)o1 , please.
23

Returns the measured %Inh for the input compound. Input: COc1cccc(C(=O)Nc2cccc(Oc3ccc4nc(NC(=O)C5CC5)cn4n3)c2)c1
0

May I ask what %Inh has been recorded for CC(=O)N1CCN(c2ccc(Nc3nccc(-c4sc(C(C)C)nc4-c4cccc(NS(=O)(=O)c5cccc(Cl)c5)c4)n3)cn2)CC1 ?
41

Endpoint output: %Inh of COc1cccc(-c2ccc3c(NC(=O)C4CC4)n[nH]c3n2)c1 . Value?
0
